Sourced from patent US20240116985A1

Target: full-length beta-Catenin (Uniprot ID P35222) (Homo sapiens)
Construct: 10 nM full-length beta-Catenin (Uniprot ID P35222)
Sequence (P35222 whole entry): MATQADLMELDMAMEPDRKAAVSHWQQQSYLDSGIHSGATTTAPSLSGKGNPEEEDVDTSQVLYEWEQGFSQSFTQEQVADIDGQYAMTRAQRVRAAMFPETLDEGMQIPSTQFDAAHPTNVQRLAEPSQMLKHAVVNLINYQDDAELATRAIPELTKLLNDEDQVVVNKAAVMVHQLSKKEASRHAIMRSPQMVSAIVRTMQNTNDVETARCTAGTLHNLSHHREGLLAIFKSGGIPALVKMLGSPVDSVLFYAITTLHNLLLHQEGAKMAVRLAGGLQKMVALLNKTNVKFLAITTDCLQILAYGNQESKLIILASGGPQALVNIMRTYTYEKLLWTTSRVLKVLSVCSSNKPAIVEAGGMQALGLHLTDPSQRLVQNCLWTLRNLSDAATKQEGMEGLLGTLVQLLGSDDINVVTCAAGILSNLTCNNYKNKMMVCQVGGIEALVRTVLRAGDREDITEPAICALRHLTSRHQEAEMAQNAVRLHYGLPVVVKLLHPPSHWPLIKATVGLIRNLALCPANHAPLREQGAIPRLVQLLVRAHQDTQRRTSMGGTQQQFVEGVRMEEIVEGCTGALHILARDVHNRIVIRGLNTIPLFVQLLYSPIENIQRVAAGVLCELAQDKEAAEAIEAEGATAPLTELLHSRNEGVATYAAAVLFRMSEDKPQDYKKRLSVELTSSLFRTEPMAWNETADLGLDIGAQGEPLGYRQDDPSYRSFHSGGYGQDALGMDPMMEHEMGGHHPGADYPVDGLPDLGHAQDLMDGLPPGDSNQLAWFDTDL
Experiment: Fluorescence polarization IC50 (beta-catenin / 5FAM-TCF4 10-53 competition)
Format: binding
Details: fluorescence polarization; read-out: beta-Catenin FP IC50
measurement.label: pIC50
Would you please state pIC50, meaning minus log10 of the concentration in mol/L, as a bare number?

>>> observed("CC(=O)N[C@]1(C)CCCC=CCCCC2(CCCC=CCCCOC(=O)N3CC[C@@](C(=O)N[C@@H](Cc4ccccc4C(F)(F)F)C(=O)N[C@@H](Cc4csc5ccccc45)C(=O)N[C@@H](CCC(N)=O)C(N)=O)(C3)NC(=O)[C@H](CC(C)C)NC(=O)[C@H](Cc3ccccc3)NC(=O)[C@H](C)NC(=O)[C@H](C)NC(=O)[C@H](Cc3cccc(C(=O)O)c3)NC(=O)[C@H](CC(=O)O)NC2=O)NC(=O)[C@H](CC(C)(C)C)NC(=O)[C@H](CC(=O)O)NC1=O (some centres unmarked) [I-2565]")
7.05
>>> observed("CC(=O)N1CCC[C@]12CC=CCCCC1(CCCC=CCCCOC(=O)N3CC[C@@](C(=O)N[C@@H](Cc4cccc(C#N)c4)C(=O)N[C@@H](Cc4csc5ccccc45)C(=O)N[C@@H](CCC(N)=O)C(N)=O)(C3)NC(=O)[C@H](CC(C)C)NC(=O)[C@H](Cc3ccccc3)NC(=O)[C@H](C)NC(=O)[C@H](C)NC(=O)[C@H](CC(=O)O)NC(=O)[C@H](CC(=O)O)NC1=O)NC(=O)[C@H](CC(C)(C)C)NC(=O)[C@H](CC(=O)O)NC2=O (some centres unmarked)")
7.09
>>> observed("CC[C@H](C)[C@@H]1NC(=O)[C@H](CNS(=O)(=O)C(F)(F)F)NC(=O)[C@]2(CC=CCCCC3(CCCC=CCCCCCC[C@@](C)(C(=O)N[C@@H](Cc4ccccc4)C(=O)N[C@@H](Cc4csc5ccccc45)C(=O)N[C@@H](CCC(N)=O)C(N)=O)NC(=O)[C@H](CCC(N)=O)NC(=O)[C@H](Cc4ccccc4)NC(=O)[C@H](C)NC(=O)[C@H](C)NC(=O)[C@H](CCC(=O)O)NC(=O)[C@H](CC(=O)O)NC3=O)NC1=O)CCCN2C(C)=O (some centres unmarked)")
5.30
>>> observed("CC(=O)N1CCC[C@]12CC=CCCCC1(CCCC=CCCCOC(=O)N3CC[C@@](C(=O)N[C@@H](Cc4ccsc4)C(=O)N[C@@H](Cc4csc5ccccc45)C(=O)N[C@@H](CCC(N)=O)C(N)=O)(C3)NC(=O)[C@H](CC(C)C)NC(=O)[C@H](Cc3ccccc3)NC(=O)[C@H](C)NC(=O)[C@H](C)NC(=O)[C@H](CCC(=O)S)NC(=O)[C@H](CC(=O)O)NC1=O)NC(=O)[C@H](CC(C)(C)C)NC(=O)[C@H](CC(=O)O)NC2=O (some centres unmarked) [I-1948]")
5.88

// next item, pIC50 requested
Prompt line: What does the data say about its pIC50? Entry: CC(=O)N1CCC[C@]12CC=CCCCC1(CCCC=CCCCOC(=O)N3CC[C@@](C(=O)N[C@@H](Cc4ccccc4)C(=O)N[C@@H](Cc4csc5ccccc45)C(=O)N[C@@H](CCC(N)=O)C(N)=O)(C3)NC(=O)[C@H](CC(C)C)NC(=O)[C@H](Cc3ccccc3)NC(=O)[C@H](C)NC(=O)[C@H](CCCCNC(C)C)NC(=O)[C@H](Cc3cccc(C(N)=O)c3)NC(=O)[C@H](CC(=O)O)NC1=O)NC(=O)[C@H](CC(C)(C)C)NC(=O)[C@H](CC(N)=O)NC2=O (some centres unmarked)
Response line: 5.55
